Each entry below carries its recorded cell viability.
system: P12-Ichikawa; test: cell viability relative to DMSO control; higher = less cytotoxic; conditions: RPMI 5 mM glucose + 10% dialyzed FBS; 48 h; 15.4 µM
Form entry: enter the amount, then its unit.

Examples from the recorded data:
Compound: CCCn1c(=O)c2[nH]c(-c3cnn(Cc4cccc(C(F)(F)F)c4)c3)nc2n(CC)c1=O
cell viability: 73.6%
--
Compound: CC1(C)CC(=O)c2c(C(F)(F)F)nn(-c3ccc(C(N)=O)c(NC4CCC(OC(=O)CN)CC4)c3)c2C1 (centres undefined)
cell viability: 28.8%
--
Compound: O=C1c2cccc(O)c2C(=O)c2c(O)cc(CO)cc21
cell viability: 88.3%
--
Compound: CN1C(=O)COc2c(C(=O)NC3CN4CCC3CC4)cc(Cl)cc21 (centres undefined)
cell viability: 89.2%
--
Compound: O=C(NC1CC1)c1cccc(-c2ccc3c(NC(=O)C4CC4)n[nH]c3c2)c1
cell viability: 55.3%
--
Compound: CC1=C2N=C([NH]C2=CC(=C1)N3CCOCC3)\C4=C(NC[C@@H](O)C5=CC=CC(=C5)Cl)\C=C/NC4=O
cell viability: 105%
--
Compound: c1ccc2c(-c3cnn4cc(-c5ccc(N6CCNCC6)cc5)cnc34)ccnc2c1
cell viability: 120%
--
Compound: Cc1cc(SCc2sc(-c3ccc(C(F)(F)F)c(F)c3)nc2C)ccc1OCC(=O)O
cell viability: 80.9%

Here is the next item to consider.
May I ask what cell viability has been recorded for COc1ccc(Cn2ccc3ccc(C(=O)NO)cc32)cc1 ? 87%
